Measured cell viability, listed per entry for reference.
test system: P12-Ichikawa; assay: cell viability relative to DMSO control; higher = less cytotoxic; conditions: RPMI 5 mM glucose + 10% FBS; 48 h; 0.569 µM
Value Kind: cell viability (%)

Molecule | Value Kind | Output Unit | Reported
CN[S+](=O)([O-])Cc1ccc2[nH]cc(CCN(C)C)c2c1 | cell viability | % | 131
OC[C@H]1O[C@@H](O[C@@H]2[C@@H](CO)O[C@](O)(CO)[C@H]2O)[C@H](O)[C@@H](O)[C@H]1O | cell viability | % | 99
CC/C(=C(/c1ccc(O)cc1)c1ccc(OCCNC)cc1)c1ccccc1 | cell viability | % | 113
CN(c1ncccc1CNc1nc(Nc2ccc3c(c2)CC(=O)N3)ncc1C(F)(F)F)[S+](C)(=O)[O-] | cell viability | % | 114
COc1ccc(C[C@@H](C)[C@@H](C)Cc2ccc(OC)c(OC)c2)cc1OC | cell viability | % | 92.4
OC1=C(O)C2=C(\C=C/C(=O)O2)C=C1 | cell viability | % | 124
CCC[C@H](NC(=O)/C(C#N)=C/c1cccc(Br)n1)c1ccccc1 | cell viability | % | 128
C[C@H](O)[C@H]1[C@@H]2[C@H](C)C(=C(\N2C1=O)C(O)=O)/S[C@@H]3CN[C@H](CN[S+](N)([O-])=O)C3 | cell viability | % | 123
Cc1nc(NC(=O)N2CCC[C@H]2C(N)=O)sc1-c1ccnc(C(C)(C)C(F)(F)F)c1 | cell viability | % | 79.6
Cc1ccc(NC(=O)c2ccc(CN3CCN(C)CC3)cc2)cc1Nc1nc(-c2cccnc2)cs1 | cell viability | % | 89.1
C[C@]\12CC[C@H](O)CC1=C/CC3C2CC[C@@]\4(C)C3C\C=C4[N]5C=NC6=C5C=CC=C6 (some centres not stated) | cell viability | % | 105
CC(C)[C@@H](N(CCCN)C(=O)C1=CC=C(C)C=C1)C/2=N/C3=CC(=CC=C3C(=O)N2CC4=CC=CC=C4)Cl | cell viability | % | 8.85
CCc1cc(Nc2nccc(-c3c(-c4ccc(OC)c(C(=O)Nc5c(F)cccc5F)c4)nc4ccccn34)n2)c(OC)cc1N1CCC(N2CCN([S+](C)(=O)[O-])CC2)CC1 | cell viability | % | 111
O=C([O-])C(O)Cc1ccc(O)c(O)c1 (configuration not stated) | cell viability | % | 92.6
O=NN(CCCl)C(=O)NCCCl | cell viability | % | 97.2
CC1CCC(C(=O)N(c2cc(C#CC(C)(C)C)sc2C(=O)O)C2CCC(O)CC2)CC1 (configuration not stated) | cell viability | % | 96.7
COc1cccc2cc(-c3nc(C4CCC(C(=O)O)CC4)n4ncnc(N)c34)[nH]c12 (configuration not stated) | cell viability | % | 67.8
NC1(Cc2ccc(Cl)cc2)CCN(c2ncnc3[nH]ccc23)CC1 | cell viability | % | 84.7
CCCc1nc(C(C)(C)O)c(C(=O)O)n1Cc1ccc(-c2ccccc2-c2nn[nH]n2)cc1 | cell viability | % | 124
C=C(C)[C@@H]1CC[C@]2(C(=O)O)CC[C@]3(C)[C@H](CC[C@@H]4[C@@]5(C)CC[C@H](O)C(C)(C)[C@@H]5CC[C@]43C)[C@@H]12 | cell viability | % | 119
Cc1cn2c(-c3cn[nH]c3)cnc2c(Nc2ccc(C(=O)N3CCNCC3)cc2F)n1 | cell viability | % | 95.1
CN(C)CCOc1cc(-c2cn[nH]c2)ccc1NC(=O)C1COc2ccccc2O1 (configuration not stated) | cell viability | % | 128
